MIC listing for selected compounds.
- System: Escherichia coli
- ASSAY: Minimum inhibitory concentration against the strains of Escherichia coli that produce the beta-lactamases
- Format: functional
Just the number please, in µg/mL, no unit attached.

## Task Field request: MIC | item: CC(C)(C)OC(=O)N1CC[C@@H]2[C@H]1C(=O)N2S(=O)(=O)O
## Result 16

---

- Test system: Escherichia coli
- ASSAY: Minimum inhibitory concentration against the strains of Escherichia coli that produce the beta-lactamases
- Format: functional
OUTCOME_MEASURE: MIC

## Task Would you mind telling me what MIC value was observed for NC(=O)c1ccc(NC(=O)N2CCC3C2C(=O)N3OS(=O)(=O)[O-])cc1.[Na+] (centres undefined) ?
## Result 8 µg/mL

## Task For CC(C)(C)OC(=O)N1CCC2C1C(=O)N2OCC(=O)OCc1ccccc1 (centres undefined) , what is its reported MIC?
## Result > 16 µg/mL

## Task Record request: MIC value, item NC(=O)c1ccc(NC(=O)N2CC[C@@H]3[C@H]2C(=O)N3S(=O)(=O)O)cc1
## Result 16 µg/mL

## Task Please look up its MIC: CC(C)(C)OC(=O)N1CCC2C1C(=O)N2OS(=O)(=O)[O-].[Na+] (centres undefined)
## Result 4 µg/mL
